Taken from patent US6777434B2.

- TESTED_TARGET: COX-1 (Homo sapiens)
- Construct: host or cells: U-937 human lymphoma cells
- Sequence (P23219 24-599): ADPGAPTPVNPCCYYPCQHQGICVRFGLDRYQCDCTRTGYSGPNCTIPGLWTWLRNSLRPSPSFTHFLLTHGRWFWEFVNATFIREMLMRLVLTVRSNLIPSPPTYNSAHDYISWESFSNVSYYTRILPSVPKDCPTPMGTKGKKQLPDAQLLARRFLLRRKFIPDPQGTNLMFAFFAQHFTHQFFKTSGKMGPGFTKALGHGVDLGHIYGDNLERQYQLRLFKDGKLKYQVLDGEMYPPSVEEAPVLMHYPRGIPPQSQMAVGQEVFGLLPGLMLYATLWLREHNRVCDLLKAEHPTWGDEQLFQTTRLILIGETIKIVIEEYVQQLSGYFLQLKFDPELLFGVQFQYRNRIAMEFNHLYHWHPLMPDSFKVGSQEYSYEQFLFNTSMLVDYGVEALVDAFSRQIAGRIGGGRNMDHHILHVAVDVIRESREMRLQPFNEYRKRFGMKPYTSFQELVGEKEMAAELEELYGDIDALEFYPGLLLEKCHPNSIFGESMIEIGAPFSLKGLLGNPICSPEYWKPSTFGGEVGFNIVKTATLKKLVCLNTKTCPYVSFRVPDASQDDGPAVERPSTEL
- PROTOCOL_NOTES: Assay for the COX-1 inhibitory activity using U-937 (PGE2 inhibition)
- Type: cell-based
- CONDITIONS_USED: 1 μM test compound; U-937 human lymphoma cells; PGE2 after arachidonic acid; read-out: Cyclooxygenase (COX) Inhibition (%) COX-1 (1 μM)
Below, each entry is listed with its recorded inhibition at 1 µM.
# unit: % | format: bare number

Sample answers from the record:
- CS(=O)(=O)c1ccc(C2SCC(=O)N2c2cc(F)cc(F)c2)cc1 (stereo not shown) [Example 6]: 38
- Cc1ccc(N2C(=O)CSC2c2ccc(S(C)(=O)=O)cc2)cc1F (stereo not shown) [Example 2]: 29.2
- CS(=O)(=O)c1ccc(C2SCC(=O)N2c2ccc(C#N)cc2)cc1 (stereo not shown) [Example 5]: 10.1

Reported inhibition at 1 µM of CS(=O)(=O)c1ccc(C2SCC(=O)N2c2ccccc2)cc1 (stereo not shown) [Example 4] : 26

----------
Here the recorded inhibition at 0.01 µM is given for each entry.
- TESTED_TARGET: COX-2 (Mus musculus, UniProt Q05769)
- Construct: host or cells: RAW 264.7 cells, pre-treated with aspirin, then induced with interferon and LPS
- Sequence (Q05769 18-604): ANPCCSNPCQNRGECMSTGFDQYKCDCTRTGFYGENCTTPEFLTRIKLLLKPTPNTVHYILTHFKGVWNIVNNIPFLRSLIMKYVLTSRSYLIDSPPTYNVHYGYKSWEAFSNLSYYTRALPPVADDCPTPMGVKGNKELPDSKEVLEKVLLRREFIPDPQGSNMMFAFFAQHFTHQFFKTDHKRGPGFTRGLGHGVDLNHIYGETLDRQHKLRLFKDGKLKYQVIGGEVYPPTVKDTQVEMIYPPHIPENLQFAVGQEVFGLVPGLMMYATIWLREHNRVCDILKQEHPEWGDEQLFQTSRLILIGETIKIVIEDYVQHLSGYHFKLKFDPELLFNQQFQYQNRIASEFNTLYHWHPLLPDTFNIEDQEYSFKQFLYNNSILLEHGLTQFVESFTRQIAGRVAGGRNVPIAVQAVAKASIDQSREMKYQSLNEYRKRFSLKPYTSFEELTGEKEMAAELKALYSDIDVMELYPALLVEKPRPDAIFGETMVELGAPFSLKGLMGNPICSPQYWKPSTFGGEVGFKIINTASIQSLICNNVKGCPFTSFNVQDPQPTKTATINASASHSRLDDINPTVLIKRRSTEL
- PROTOCOL_NOTES: Assay for the COX-2 inhibitory activity using RAW 264.7 cell line (PGE2 inhibition)
- Assay type: cell-based
- CONDITIONS_USED: RAW264.7; 10 nM test compound; RAW 264.7 cells; interferon and LPS, 18 hours; PGE2 by EIA; read-out: Cyclooxygenase (COX) Inhibition (%) COX-2 (10 nM)
- Procedure: Each well was treated with 250 μM of aspirin and incubated at 37° C. for 2 hours. After the culture media were replaced with new culture media, the new culture media were treated with a test compound (10 nM) and incubated for 30 minutes. Then, each well was treated with interferon ? […] The concentration of PGE2 was quantified by means of the EIA kit (Cayman Chemicals): The percentages of the COX inhibition were calculated according to the following equation: […]
In your response, the unit should come after the numeric value.

Use the examples below as a reference point.
• Cc1ccc(N2C(=O)CSC2c2ccc(S(C)(=O)=O)cc2)cc1F (stereo not shown) [Example 2] = 16%
• CS(=O)(=O)c1ccc(C2SCC(=O)N2c2cc(F)cc(F)c2)cc1 (stereo not shown) [Example 6] = 12.1%

So for CS(=O)(=O)c1ccc(C2SCC(=O)N2c2ccccc2)cc1 (stereo not shown) [Example 4] , the logged inhibition at 0.01 µM turned out to be 16%

Looking up CS(=O)(=O)c1ccc(C2SCC(=O)N2c2ccc(C#N)cc2)cc1 (stereo not shown) [Example 5] , I found its inhibition at 0.01 µM recorded as 6.54%
